Can you tell me IC50 p110 alpha/IC50 p110 delta for the items I'm about to list?
# measurementTarget: p110 alpha (Homo sapiens (Human))
# Sequence (P42336 whole entry, canonical isoform): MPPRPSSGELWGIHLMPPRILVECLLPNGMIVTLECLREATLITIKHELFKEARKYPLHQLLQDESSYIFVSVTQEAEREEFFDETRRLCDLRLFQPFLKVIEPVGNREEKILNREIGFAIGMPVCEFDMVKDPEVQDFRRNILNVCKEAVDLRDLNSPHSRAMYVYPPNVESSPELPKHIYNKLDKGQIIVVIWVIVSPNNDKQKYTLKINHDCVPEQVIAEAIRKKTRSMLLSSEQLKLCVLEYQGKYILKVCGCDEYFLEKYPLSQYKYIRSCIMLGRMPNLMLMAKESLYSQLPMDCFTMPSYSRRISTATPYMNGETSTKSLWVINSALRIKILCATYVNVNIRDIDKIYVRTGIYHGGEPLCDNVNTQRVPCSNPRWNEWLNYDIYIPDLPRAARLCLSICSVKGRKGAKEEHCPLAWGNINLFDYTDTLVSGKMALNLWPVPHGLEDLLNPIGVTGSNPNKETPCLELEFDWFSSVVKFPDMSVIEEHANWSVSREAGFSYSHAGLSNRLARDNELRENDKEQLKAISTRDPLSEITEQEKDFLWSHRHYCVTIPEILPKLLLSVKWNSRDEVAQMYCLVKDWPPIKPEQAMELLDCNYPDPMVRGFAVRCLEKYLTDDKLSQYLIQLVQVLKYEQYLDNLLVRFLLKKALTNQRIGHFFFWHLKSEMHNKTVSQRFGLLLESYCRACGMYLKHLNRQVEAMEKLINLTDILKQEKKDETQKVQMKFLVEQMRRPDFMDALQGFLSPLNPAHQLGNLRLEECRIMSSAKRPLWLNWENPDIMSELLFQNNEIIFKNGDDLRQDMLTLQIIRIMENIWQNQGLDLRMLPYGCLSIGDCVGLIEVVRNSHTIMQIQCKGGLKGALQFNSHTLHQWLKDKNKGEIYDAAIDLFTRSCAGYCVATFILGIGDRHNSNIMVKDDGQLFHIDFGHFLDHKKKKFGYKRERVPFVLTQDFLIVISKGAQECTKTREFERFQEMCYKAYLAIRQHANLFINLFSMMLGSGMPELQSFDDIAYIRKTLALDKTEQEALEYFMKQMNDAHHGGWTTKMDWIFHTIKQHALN
# Sequence (P27986 whole entry partner, canonical isoform): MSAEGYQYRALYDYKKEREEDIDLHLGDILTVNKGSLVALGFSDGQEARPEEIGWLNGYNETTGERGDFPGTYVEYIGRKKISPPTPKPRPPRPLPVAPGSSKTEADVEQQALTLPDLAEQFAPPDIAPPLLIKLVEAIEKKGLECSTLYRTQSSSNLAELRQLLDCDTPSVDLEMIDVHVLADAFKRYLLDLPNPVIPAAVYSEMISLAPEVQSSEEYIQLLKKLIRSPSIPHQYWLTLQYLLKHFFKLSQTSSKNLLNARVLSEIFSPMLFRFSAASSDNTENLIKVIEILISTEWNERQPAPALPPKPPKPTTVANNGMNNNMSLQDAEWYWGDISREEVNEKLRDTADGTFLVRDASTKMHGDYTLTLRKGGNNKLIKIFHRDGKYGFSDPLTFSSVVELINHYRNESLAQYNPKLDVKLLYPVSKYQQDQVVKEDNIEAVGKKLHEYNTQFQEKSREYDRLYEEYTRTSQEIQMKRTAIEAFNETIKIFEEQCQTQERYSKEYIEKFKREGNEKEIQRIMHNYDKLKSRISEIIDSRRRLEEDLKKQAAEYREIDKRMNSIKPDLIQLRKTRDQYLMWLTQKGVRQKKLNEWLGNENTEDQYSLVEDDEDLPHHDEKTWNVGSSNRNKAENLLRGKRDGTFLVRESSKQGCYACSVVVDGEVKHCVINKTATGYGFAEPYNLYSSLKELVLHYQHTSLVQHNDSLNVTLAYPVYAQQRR
# experiment: PI3K isoform inhibition assay, p110 alpha (for alpha/delta selectivity)
# conditionLabel: ratio of biochemical IC50 values
# Procedure: PI3K enzymatic activity was assayed by measuring the amount of product phosphatidylinositol 3,4,5-phosphate (PIP3) formed from substrate 4,5 phosphatidylinositol 4,5-phosphate (PIP2) using a fluorescence polarization displacement assay. The decrease in fluorescence polarization of a fluorescent PIP3 probe is measured as it is displaced from a PIP3-binding protein GRP-1 detector by PI3K-catalyzed product. […]
// response body must contain only the number

Kindly note the recorded IC50 p110 alpha/IC50 p110 delta for Cc1nc(-c2cn3c(n2)-c2ccc(OC4(CC5CC5)CNC4)cc2OCC3)n(C(C)C)n1 [Example 284] , which is 23.9

Kindly note the recorded IC50 p110 alpha/IC50 p110 delta for CC(C)n1nc(N)nc1-c1cn2c(n1)-c1ccc(-c3ccnn3C3CCN(C(C)(C)C)CC3)cc1OCC2 [Example 327] , which is 20.8

Kindly note the recorded IC50 p110 alpha/IC50 p110 delta for Cc1nc(-c2cn3c(n2)-c2ccc(N4CCCC45CCCN(C)C5)cc2OCC3)n(C(C)C)n1 (centres unmarked) [Example 318] , which is 29.4

Kindly note the recorded IC50 p110 alpha/IC50 p110 delta for CCN1CCC(C2CCCN2c2ccc3c(c2)OCCn2cc(-c4nc(C)nn4C(C)C)nc2-3)CC1 (centres unmarked) [Example 304] , which is 36.4

Kindly note the recorded IC50 p110 alpha/IC50 p110 delta for CC(C)n1ncnc1-c1cn2c(n1)-c1cnc(N3CCCC3C3CCN(C)CC3)cc1OCC2 (centres unmarked) [Example 106] , which is 25.7

Kindly note the recorded IC50 p110 alpha/IC50 p110 delta for Cc1nc(-c2cn3c(n2)-c2ccc(-c4cnn(C)c4C4CC(N(C)C(C)C)CCO4)cc2OCC3)n(C(C)C)n1 (centres unmarked) [Example 343] , which is 53

Kindly note the recorded IC50 p110 alpha/IC50 p110 delta for Cc1nc(-c2cn3c(n2)-c2cc(C(C)N4CCN(CC(C)(C)O)CC4)c(C)cc2OCC3)n(C(C)C)n1 (centres unmarked) [Example 349] , which is 18.1

Kindly note the recorded IC50 p110 alpha/IC50 p110 delta for Cc1nc(-c2cn3c(n2)-c2cc(C(C)N4CCN(C(C)(C)C)CC4)c(F)cc2OCC3)n(C(C)C)n1 (centres unmarked) [Example 328] , which is 109

Kindly note the recorded IC50 p110 alpha/IC50 p110 delta for Cc1nc(-c2cn3c(n2)-c2ccc(N4CCC4[C@@H]4CCCN(C(C)C)C4)cc2OCC3)n(C(C)C)n1 (some centres unmarked) [Example 342] , which is 21.3

Kindly note the recorded IC50 p110 alpha/IC50 p110 delta for Cc1nc(-c2cn3c(n2)-c2ccc(N4CCCC4C4CCCN(C)C4)cc2OCC3)n(C(C)C)n1 (centres unmarked) [Example 321] , which is 22.1

Kindly note the recorded IC50 p110 alpha/IC50 p110 delta for Cc1nc(-c2cn3c(n2)-c2ccc(OC4(CC(C)C)CN(C(C)C)C4)cc2OCC3)n(C(C)C)n1 [Example 301] , which is 32.1

Kindly note the recorded IC50 p110 alpha/IC50 p110 delta for Cc1nc(-c2cn3c(n2)-c2ccc(-c4cnn(C(C)C)c4CN4CCN(C)CC4)cc2OCC3)n(C(C)C)n1 [Example 278] , which is 33.4

Kindly note the recorded IC50 p110 alpha/IC50 p110 delta for Cc1nc(-c2cn3c(n2)-c2ccc(N4CCCC45CCCN(C)C5)cc2OCC3)n(C(C)C)n1 (centres unmarked) [Example 314] , which is 50.1

Kindly note the recorded IC50 p110 alpha/IC50 p110 delta for Cc1nc(-c2cn3c(n2)-c2ccc(N4CCCC4C4CCCN(C)C4)cc2OCC3)n(C(C)C)n1 (centres unmarked) [Example 319] , which is 26.3

Kindly note the recorded IC50 p110 alpha/IC50 p110 delta for Cc1nc(-c2cn3c(n2)-c2cc(-c4cnn(C)c4C4CCCN(C(C)C)C4)c(F)cc2OCC3)n(C(C)C)n1 (centres unmarked) [Example 359] , which is 54.1

Kindly note the recorded IC50 p110 alpha/IC50 p110 delta for Cc1nc(-c2cn3c(n2)-c2ccc(OC4(CN5CCN(C)CC5)CC4)cc2OCC3)n(C(C)C)n1 [Example 259] , which is 26.1

Kindly note the recorded IC50 p110 alpha/IC50 p110 delta for COc1cc2c(cc1[C@H](C)N1CCN(C(C)(C)C)CC1)-c1nc(-c3nc(C)nn3C(C)C)cn1CCO2 [Example 357] , which is 116

Kindly note the recorded IC50 p110 alpha/IC50 p110 delta for Cc1nc(-c2cn3c(n2)-c2ccc(N4CCCC4C4CCCN(C)C4)cc2OCC3)n(C(C)C)n1 (centres unmarked) [Example 311] , which is 46.8

Kindly note the recorded IC50 p110 alpha/IC50 p110 delta for Cc1nc(-c2cn3c(n2)-c2cc([C@@H](C)N4CCN(C(C)C)CC4)c(F)cc2OCC3)n(C(C)C)n1 [Example 338] , which is 114

Kindly note the recorded IC50 p110 alpha/IC50 p110 delta for Cc1nc(-c2cn3c(n2)-c2cnc(-c4cnn(C)c4C4CCCN(C(C)C)C4)cc2OCC3)n(C(C)C)n1 (centres unmarked) [Example 370] , which is 16.1

Kindly note the recorded IC50 p110 alpha/IC50 p110 delta for CC(C)n1nc(CO)nc1-c1cn2c(n1)-c1ccc(-c3ccnn3C3CCN(C)CC3)cc1OCC2 [Example 290] , which is 15.9

Kindly note the recorded IC50 p110 alpha/IC50 p110 delta for Cc1nc(-c2cn3c(n2)-c2cc([C@H](C)N4CCN(C(C)(C)C)CC4)c(F)cc2OCC3)n(C(C)C)n1 [Example 297] , which is 102

Kindly note the recorded IC50 p110 alpha/IC50 p110 delta for Cc1nc(-c2cn3c(n2)-c2ccc(-c4cnn(C)c4C4CN(C(C)C)CCO4)cc2OCC3)n(C(C)C)n1 (centres unmarked) [Example 372] , which is 18

Kindly note the recorded IC50 p110 alpha/IC50 p110 delta for Cc1nc(-c2cn3c(n2)-c2ccc(OC4(C)CNC4)cc2OCC3)n(C(C)C)n1 [Example 271] , which is 9.8

Kindly note the recorded IC50 p110 alpha/IC50 p110 delta for Cc1nc(-c2cn3c(n2)-c2cc([C@H](C)N4CCN(C(C)(C)CO)CC4)ncc2OCC3)n(C(C)C)n1 [Example 364] , which is 85.9

Kindly note the recorded IC50 p110 alpha/IC50 p110 delta for Cc1nc(-c2cn3c(n2)-c2cc(-c4ccnn4[C@@H]4CCCN(C(C)C)C4)c(F)cc2OCC3)n(C(C)C)n1 [Example 315] , which is 25.8
